Target: T1, NPY2 receptor (human (printed as hNPY2R), UniProt P49146 1-381)
T1 sequence (looked up): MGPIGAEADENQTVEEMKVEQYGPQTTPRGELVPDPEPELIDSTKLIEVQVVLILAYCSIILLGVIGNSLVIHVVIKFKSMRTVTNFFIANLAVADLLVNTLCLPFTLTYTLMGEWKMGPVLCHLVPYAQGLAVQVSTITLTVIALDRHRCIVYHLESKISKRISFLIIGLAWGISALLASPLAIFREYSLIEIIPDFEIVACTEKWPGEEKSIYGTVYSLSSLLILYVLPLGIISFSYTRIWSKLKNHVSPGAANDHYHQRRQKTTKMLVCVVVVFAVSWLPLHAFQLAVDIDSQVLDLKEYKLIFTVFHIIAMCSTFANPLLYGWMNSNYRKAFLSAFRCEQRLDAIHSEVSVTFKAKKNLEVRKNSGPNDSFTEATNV
Test: cell-based or functional assay
Starred links: 1 amine or outer side, 2 acyl side, 3 side chain; linkers in the order of their positions; H or OH if unused. Non-standard residues stand in square brackets, D forms with d. Groups on a side chain read outwards from the residue. No end group written: not given here. *: point of attachment. C20 diacid = O=C(O)CCCCCCCCCCCCCCCCCCC(=O)*; C18 diacid = O=C(O)CCCCCCCCCCCCCCCCC(=O)*; γGlu = O=C(O)[C@H](CCC(=O)[*:2])N[*:1]; εLys = N[C@@H](CCCCN[*:1])C(=O)[*:2]; AEEA = NCCOCCOCC(=O)O; Aib = CC(C)(N)C(=O)O
Overview of reported EC50 hNPY2R 100% hP (CreLuc) across a group of binders:
outcome.measure: EC50 hNPY2R 100% hP (CreLuc) (nM)

binder: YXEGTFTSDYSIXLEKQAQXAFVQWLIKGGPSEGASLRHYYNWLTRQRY (Aib at 2, 13, 20; K28 side chain carries C18DA-E-E-E-E-E (SEQ ID NO: 636); C-terminal amide) [Compound 257]
value.units: nM
assay.result: 96.3
//
binder: YXEGTFTSDYSIXLEKQAQXEFVQWLIKGGPSEGASLRHYYNWLTRQRY (Aib at 2, 13, 20; K28 side chain carries C18DA-E-E-E-E-E (SEQ ID NO: 636); C-terminal amide) [Compound 176]
value.units: nM
assay.result: 197
//
binder: Y[Aib]EGTFTSDYSI[Aib]LEKQAQ[Aib]AFVQWLIK([εLys-Glu-Glu-Glu-Glu-Glu-C20 diacid])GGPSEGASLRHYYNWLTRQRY-NH2 (also: TFA salt) [Compound 240]
value.units: nM
assay.result: 77.5
//
binder: Y[Aib]EGTFTSDYSI[Aib]LEKQAQ[Aib]AFVEWLIK([AEEA-AEEA-γGlu-γGlu-γGlu-γGlu-C20 diacid])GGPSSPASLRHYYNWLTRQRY-NH2 (also: TFA salt) [Compound 175]
value.units: nM
assay.result: 48.7
//
binder: YXEGTFTSDYSIXLEKQAQXAFVEWLIKGGPSSGASLLHYYNWLTRQRY (Aib at 2, 13, 20; K28 side chain carries C20DA-gGlu-gGlu-gGlu-gGlu-gGlu-gGlu-eLys; C-terminal amide) [Compound 210]
value.units: nM
assay.result: 430
//
binder: Y[Aib]EGTFTSDYSI[Aib]LEKQAQ[Aib]AFVQWLIK([γGlu-γGlu-γGlu-γGlu-γGlu-γGlu-C18 diacid])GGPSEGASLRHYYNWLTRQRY-NH2 (also: TFA salt) [Compound 252]
value.units: nM
assay.result: 33.5
//
binder: Y[Aib]EGTFTSDYSI[Aib]LEKQAQ[Aib]EFVQWLIK([γGlu-γGlu-γGlu-γGlu-γGlu-γGlu-C20 diacid])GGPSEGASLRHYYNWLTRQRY-NH2 (also: TFA salt) [Compound 185]
value.units: nM
assay.result: 66.8
//
binder: Y[Aib]EGTFTSDYSI[Aib]LEKQAQ[Aib]AFIEWLIK([γGlu-γGlu-γGlu-γGlu-C18 diacid])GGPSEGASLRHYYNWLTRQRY-NH2 (also: TFA salt) [Compound 247]
value.units: nM
assay.result: 64.7
//
binder: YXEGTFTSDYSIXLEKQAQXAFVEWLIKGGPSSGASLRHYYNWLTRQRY (Aib at 2, 13, 20; K28 side chain carries C20DA-gGlu-gGlu-gGlu-gGlu-gGlu; C-terminal amide) [Compound 238]
value.units: nM
assay.result: 49.4

Reference source: patent US20240247080A1
